experiment: folding stability dG unfold (combined trypsin and chymotrypsin); higher = more stable
PROPERTY LABEL: folding stability dG unfold

Solved entries (count: 3):
1) SAGGSAGGSAGGSKKTAVLKVGDKWIPLEIDEDKVTLIYPDGKKEEISLEDIPENTISDASAGGSAGGSAGG [r7_748_TrMRF] ... -0.212 kcal/mol
2) SAGGSAGGSAGAKKLPPGQVALRIEPVTVTVTDEDGKERTVTRIRLVDAATGEEYEFTFPSAGGSAGGSAGG [r17_266_TrROS_Hall] ... 0.744 kcal/mol
3) SAGGSAGGSKKVEIKVKVKITNENGETLEVTATIVFDEKTGELYIYDEKTGKVYKISLDDIEPSAGGSAGGS [r12_772_TrROS_Hall] ... 3.53 kcal/mol

Consider SAGGSPISLEVSTSTLPDGTLRVTTTATSPDSSRSYTVTLDFPPSQPEEIPARAAAEAAAIAADPAVASAGG [r13_968_JUSTAS] . Its measured folding stability dG unfold is 0.907 kcal/mol
